- Test system: GPX4 gene
- procedure text: qRT-PCR relative expression of GPX4 gene after siGPX4 transfection, LNCaP and LNCaP-DTP cells
- Assay type: cell-based, human
- run conditions: LNCaP and drug-resistant LNCaP-DTP cells together
- Experimental: To screen for suitable siRNAs, the interference activity of the siRNAs designed in Example 1 was determined. • S1. LNCaP and MyC-CaP cells were seeded at 1×10^6 in a 10 cm cell culture dish. […] RNA level and protein level were determined by qRT-PCR and Western Blot assays, and siRNAs with interference activity were screened and obtained. […]
endpoint name: mRNA expression level of GPX4

- substance: "#1-siGPX4: unmodified double-stranded siRNA against GPX4, SEQ ID NO. 11 and SEQ ID NO. 12 (chain 1 GUGAGGCAAGACCGAAGUAAACUAC; chain 2 GUAGUUUACUUCGGUCUUGCCUCACUG; unmodified RNA)"
  endpoint name: "mRNA expression level of GPX4"
  recorded value: "around 0.73"
- substance: "#2-siGPX4: unmodified double-stranded siRNA against GPX4, SEQ ID NO. 13 and SEQ ID NO. 14 (chain 1 CUACAACGUCAAAUUCGAUAUGUUC; chain 2 GAACAUAUCGAAUUUGACGUUGUAGCC; chain 1: all phosphodiester, sugars by position not given here; chain 2: RNA, phosphodiester; further chemistry not fully specified)"
  endpoint name: "mRNA expression level of GPX4"
  recorded value: "around 0.73"

----------
- System: GPX4 gene
- procedure text: qRT-PCR relative expression of GPX4 gene after siGPX4 transfection, LNCaP and LNCaP-DTP cells
- Format: cell-based, human
- run conditions: LNCaP-DTP cells; qRT-PCR
endpoint name: Relative expression level of GPX4 gene

Query #2-siGPX4: unmodified double-stranded siRNA against GPX4, SEQ ID NO. 13 and SEQ ID NO. 14 (chain 1 CUACAACGUCAAAUUCGAUAUGUUC; chain 2 GAACAUAUCGAAUUUGACGUUGUAGCC; chain 1: all phosphodiester, sugars by position not given here; chain 2: RNA, phosphodiester; further chemistry not fully specified) yields Relative expression level of GPX4 gene of 0.755

Query #1-siGPX4: unmodified double-stranded siRNA against GPX4, SEQ ID NO. 11 and SEQ ID NO. 12 (chain 1 GUGAGGCAAGACCGAAGUAAACUAC; chain 2 GUAGUUUACUUCGGUCUUGCCUCACUG; unmodified RNA) yields Relative expression level of GPX4 gene of 0.735

Query #4-siGPX4: unmodified double-stranded siRNA against GPX4, SEQ ID NO. 5 and SEQ ID NO. 6 (chain 1 GUGAGGCAAGACCGAAGUAAA; chain 2 UUUACUUCGGUCUUGCCUCACUG; unmodified RNA) yields Relative expression level of GPX4 gene of 0.265

Query #3-siGPX4: unmodified double-stranded siRNA against GPX4, SEQ ID NO. 3 and SEQ ID NO. 4 (chain 1 ACAACGUCAAAUUCGAUAUGU; chain 2 ACAUAUCGAAUUUGACGUUGUAC; unmodified RNA) yields Relative expression level of GPX4 gene of 0.245

----------
- System: GPX4 gene
- procedure text: qRT-PCR relative expression of GPX4 gene after siGPX4 transfection, LNCaP and LNCaP-DTP cells
- Assay type: cell-based, human
- run conditions: LNCaP cells; qRT-PCR
- Procedure: To screen for suitable siRNAs, the interference activity of the siRNAs designed in Example 1 was determined. • S1. LNCaP and MyC-CaP cells were seeded at 1×10^6 in a 10 cm cell culture dish. […] RNA level and protein level were determined by qRT-PCR and Western Blot assays, and siRNAs with interference activity were screened and obtained. […]
endpoint name: Relative expression level of GPX4 gene
Keep the answer to the number alone.

Sample answers from the record:
- substance: "#4-siGPX4: unmodified double-stranded siRNA against GPX4, SEQ ID NO. 5 and SEQ ID NO. 6 (chain 1 GUGAGGCAAGACCGAAGUAAA; chain 2 UUUACUUCGGUCUUGCCUCACUG; unmodified RNA)"
  assayed system: "GPX4 gene"
  Relative expression level of GPX4 gene: 0.220
- substance: "#3-siGPX4: unmodified double-stranded siRNA against GPX4, SEQ ID NO. 3 and SEQ ID NO. 4 (chain 1 ACAACGUCAAAUUCGAUAUGU; chain 2 ACAUAUCGAAUUUGACGUUGUAC; unmodified RNA)"
  assayed system: "GPX4 gene"
  Relative expression level of GPX4 gene: 0.180
- substance: "#2-siGPX4: unmodified double-stranded siRNA against GPX4, SEQ ID NO. 13 and SEQ ID NO. 14 (chain 1 CUACAACGUCAAAUUCGAUAUGUUC; chain 2 GAACAUAUCGAAUUUGACGUUGUAGCC; chain 1: all phosphodiester, sugars by position not given here; chain 2: RNA, phosphodiester; further chemistry not fully specified)"
  assayed system: "GPX4 gene"
  Relative expression level of GPX4 gene: 0.730

Please look at the following substance next.
Query #1-siGPX4: unmodified double-stranded siRNA against GPX4, SEQ ID NO. 11 and SEQ ID NO. 12 (chain 1 GUGAGGCAAGACCGAAGUAAACUAC; chain 2 GUAGUUUACUUCGGUCUUGCCUCACUG; unmodified RNA) yields Relative expression level of GPX4 gene of 0.700
